- Target Under Test: Histone-lysine N-methyltransferase EZH2 (Homo sapiens) (UniProt Q15910)
- Sequence (Q15910 whole entry, looked up): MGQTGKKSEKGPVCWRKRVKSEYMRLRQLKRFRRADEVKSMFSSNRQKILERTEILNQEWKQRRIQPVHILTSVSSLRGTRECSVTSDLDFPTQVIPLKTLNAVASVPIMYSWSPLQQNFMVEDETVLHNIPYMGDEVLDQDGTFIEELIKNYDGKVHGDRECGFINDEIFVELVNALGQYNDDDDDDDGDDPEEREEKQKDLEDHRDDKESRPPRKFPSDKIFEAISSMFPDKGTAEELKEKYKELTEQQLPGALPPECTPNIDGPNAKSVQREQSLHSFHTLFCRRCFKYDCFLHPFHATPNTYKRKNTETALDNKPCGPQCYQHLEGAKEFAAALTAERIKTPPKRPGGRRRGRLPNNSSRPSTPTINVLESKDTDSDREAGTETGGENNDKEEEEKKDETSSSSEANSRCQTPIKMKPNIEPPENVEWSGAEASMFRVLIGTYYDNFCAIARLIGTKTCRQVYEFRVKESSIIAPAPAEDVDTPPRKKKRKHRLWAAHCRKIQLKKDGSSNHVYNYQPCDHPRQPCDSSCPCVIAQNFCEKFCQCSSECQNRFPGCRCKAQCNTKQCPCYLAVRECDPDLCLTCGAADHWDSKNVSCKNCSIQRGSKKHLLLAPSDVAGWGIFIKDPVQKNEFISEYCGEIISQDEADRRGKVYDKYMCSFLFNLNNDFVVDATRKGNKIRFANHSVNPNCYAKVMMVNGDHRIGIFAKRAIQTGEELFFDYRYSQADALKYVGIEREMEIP
- Assay Summary: inhibition of PRC2 H3K27 methylation – biochemical, DELFIA time-resolved fluorescence, single point, primary screen (AID 651548);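 also: dimethyl H3K27 on biotinylated H3 21-44 peptide detected by antibody; plate controls were median neutral control wells for no effect and median positive control wells for full effect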
- Stated Conditions: DELFIA TRF, 1 h, at 12.5 µM, active compounds read high
Among all 57,000 compounds or so, about 200 (0.35%) were called active. Only a selection was taken, and actives are over-represented in it overall.
Metric: inhibition (%)
Quick reminder: number only, in %, skip the unit.

Known results for compounds:
**Q:** Provide Histone-lysine N-methyltransferase EZH2 (Homo sapiens) (UniProt Q15910) inhibition reading for CO[C@H]1CN(C)C(=O)c2ccc(NC(=O)C3CCCC3)cc2OC[C@@H](C)NC[C@@H]1C .
**A:** 7.43

**Q:** Provide Histone-lysine N-methyltransferase EZH2 (Homo sapiens) (UniProt Q15910) inhibition reading for O=C(C[C@H]1C=C[C@H](NC(=O)c2cccc(F)c2)[C@@H](CO)O1)NCc1ccc(Oc2ccccc2)cc1 .
**A:** -0.132

**Q:** Provide Histone-lysine N-methyltransferase EZH2 (Homo sapiens) (UniProt Q15910) inhibition reading for CC(C)NC(=O)N(C)C[C@H]1Oc2ncc(-c3ccccc3F)cc2C(=O)N([C@@H](C)CO)C[C@@H]1C .
**A:** -0.301

---
**Q:** Provide Histone-lysine N-methyltransferase EZH2 (Homo sapiens) (UniProt Q15910) inhibition reading for CN(C)Cc1cn(CC[C@H]2CC[C@H](NC(=O)Nc3ccccc3F)[C@@H](CO)O2)nn1 .
**A:** 24.4

**Q:** Provide Histone-lysine N-methyltransferase EZH2 (Homo sapiens) (UniProt Q15910) inhibition reading for COC(=O)[C@H](Cc1ccc(N=[N+]=[N-])cc1)N1CC2=C[C@@H](C3CC3)n3c(=O)n(C)c(=O)n3[C@H]2[C@@H]1[C@@H](O)Cc1ccccc1 .
**A:** 1.09

**Q:** Provide Histone-lysine N-methyltransferase EZH2 (Homo sapiens) (UniProt Q15910) inhibition reading for O=C(NCC[C@@H]1CC[C@@H](NC(=O)C2CCCC2)[C@H](CO)O1)c1cnccn1 .
**A:** -12

**Q:** Provide Histone-lysine N-methyltransferase EZH2 (Homo sapiens) (UniProt Q15910) inhibition reading for CCC(=O)N1C[C@@H](C)[C@H](OC)CN(C)C(=O)c2ccc(NC(=O)c3cc(C)on3)cc2OC[C@H]1C .
**A:** 7.38

**Q:** Provide Histone-lysine N-methyltransferase EZH2 (Homo sapiens) (UniProt Q15910) inhibition reading for COc1ccc(C(=O)Nc2ccc3c(c2)OC[C@H](C)N(C(C)=O)C[C@@H](C)[C@@H](OC)CN(C)C3=O)cc1 .
**A:** -11.8
